These entries and their values trace back to patent US20260109732A1.

protocol description: Diameter and PDI from DLS measurements of mRNA nanoparticles with lipid amines
Type: physicochemical
conditions used: CFTR mRNA nanoparticle with lipid amine
Structures can show the parent of a compound that is named as a salt.
quantity name: PDI

INPUT: Quote PDI reported for CC[C@H](CC[C@@H](C)[C@H]1CC[C@H]2[C@@H]3CC=C4C[C@@H](OC(=O)CCC(=O)N(CCCC(C)(C)N)CCC(C)(C)N)CC[C@]4(C)[C@H]3CC[C@]12C)C(C)C [SA167, dihydrochloride] please.
OUTPUT: 0.16

INPUT: Quote PDI reported for CC[C@H](CC[C@@H](C)[C@H]1CC[C@H]2[C@@H]3CC=C4C[C@@H](OC(=O)CCCCC(=O)N(CCCN)CCCCNCCCN)CC[C@]4(C)[C@H]3CC[C@]12C)C(C)C [SA90, trihydrochloride] please.
OUTPUT: 0.14

INPUT: Quote PDI reported for CC(C)CCC[C@@H](C)[C@H]1CC[C@H]2[C@@H]3CC=C4C[C@@H](OC(=O)CCC(=O)N(CCCCCCCC(C)(C)N)CCC(C)(C)N)CC[C@]4(C)[C@H]3CC[C@]12C [SA164, dihydrochloride] please.
OUTPUT: 0.14

INPUT: Quote PDI reported for CC(C)CCC[C@@H](C)[C@H]1CC[C@H]2[C@@H]3CC=C4C[C@@H](OC(=O)CCCC(=O)N(CCCCNCCC(C)N)CCC(C)N)CC[C@]4(C)[C@H]3CC[C@]12C.Cl.Cl.Cl (stereo partly shown) please.
OUTPUT: 0.15

* * *

Consider the following compounds; for each one, report its PDI.
protocol description: Diameter and PDI from DLS measurements of mRNA nanoparticles with lipid amines
Type: physicochemical
conditions used: CFTR mRNA nanoparticle with lipid amine
Structures can show the parent of a compound that is named as a salt.
# print the numeric value only

INPUT: Quote PDI reported for CC(C)CCC[C@@H](C)[C@H]1CC[C@H]2[C@@H]3CC=C4C[C@@H](OC(=O)[C@H](CCCN)NCCCCCCN)CC[C@]4(C)[C@H]3CC[C@]12C.Cl.Cl.Cl [SA132] please.
OUTPUT: 0.15

INPUT: Quote PDI reported for CC[C@H](CC[C@@H](C)[C@H]1CC[C@H]2[C@@H]3CC=C4C[C@@H](OC(=O)N(CCCN)CCCCN)CC[C@]4(C)[C@H]3CC[C@]12C)C(C)C [SA120, dihydrochloride] please.
OUTPUT: 0.14

INPUT: Quote PDI reported for CC(C)CCC[C@@H](C)[C@H]1CC[C@H]2[C@@H]3CC=C4C[C@@H](OC(=O)CN(CCCN)CCCCNCCCN)CC[C@]4(C)[C@H]3CC[C@]12C (stereo in doubt) [SA65] please.
OUTPUT: 0.14

INPUT: Quote PDI reported for CC(C)CCC[C@@H](C)[C@H]1CC[C@H]2[C@@H]3CC=C4C[C@@H](OC(=O)[C@H](CCCCN)NCCCCCCN)CC[C@]4(C)[C@H]3CC[C@]12C.Cl.Cl.Cl [SA131] please.
OUTPUT: 0.14

INPUT: Quote PDI reported for CC[C@H](CC[C@@H](C)[C@H]1CC[C@H]2[C@@H]3CC=C4C[C@@H](OC(=O)N(CCCCCCCC(C)(C)N)CCC(C)(C)N)CC[C@]4(C)[C@H]3CC[C@]12C)C(C)C [SA153, dihydrochloride] please.
OUTPUT: 0.12

INPUT: Quote PDI reported for CC[C@H](CC[C@@H](C)[C@H]1CC[C@H]2[C@@H]3CC=C4C[C@@H](OC(=O)CCC(=O)N(CCCCNCCC(C)(C)N)CCC(C)(C)N)CC[C@]4(C)[C@H]3CC[C@]12C)C(C)C [SA161, trihydrochloride] please.
OUTPUT: 0.15
